Origin of measurements: patent US20220227830A1

Biological target: T1, full-length human GIPR with an N-terminal FLAG tag (human, UniProt P48546 22-466)
T1 sequence (looked up): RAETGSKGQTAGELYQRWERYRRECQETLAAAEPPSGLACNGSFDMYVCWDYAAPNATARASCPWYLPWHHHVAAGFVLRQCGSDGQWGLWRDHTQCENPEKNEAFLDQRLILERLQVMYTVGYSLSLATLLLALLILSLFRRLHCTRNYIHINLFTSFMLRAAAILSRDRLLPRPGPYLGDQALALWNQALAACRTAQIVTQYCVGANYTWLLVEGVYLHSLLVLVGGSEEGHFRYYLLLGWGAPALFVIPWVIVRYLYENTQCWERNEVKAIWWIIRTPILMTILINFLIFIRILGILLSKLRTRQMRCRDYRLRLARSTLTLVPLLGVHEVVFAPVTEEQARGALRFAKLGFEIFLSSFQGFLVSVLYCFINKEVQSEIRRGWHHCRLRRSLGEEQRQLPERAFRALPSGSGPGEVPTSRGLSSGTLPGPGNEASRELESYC
Experiment: cell-based or functional assay
Starred links: 1 amine or outer side, 2 acyl side, 3 side chain; linkers in the order of their positions; H or OH if unused. Non-standard residues stand in square brackets, D forms with d. Groups on a side chain read outwards from the residue. No end group written: not given here. *: point of attachment. G2E3 = linker of 2 Gly and 3 Glu (read GGEEE); C15 diacid = O=C(O)CCCCCCCCCCCCCC(=O)*; γGlu = O=C(O)[C@H](CCC(=O)[*:2])N[*:1]; NMeY = CN[C@@H](Cc1ccc(O)cc1)C(=O)O; AEEA = NCCOCCOCC(=O)O; Aib = CC(C)(N)C(=O)O
experimental.readout: Human GIPR cAMP, HEK293T EC50
Number first, unit second.

// recorded Human GIPR cAMP, HEK293T EC50 for [NMeY][Aib]EGTFISDYSIAK([G5-γGlu-C15 diacid])DR[Aib]AQ[Aib]DFVNWLLAQRGGGGS-NH2 [Compound 97] : 0.2 pM

// recorded Human GIPR cAMP, HEK293T EC50 for [NMeY][Aib]EGTFISDYSI[Aib]KDR[Aib]AQ[Aib]NFVNWLLAQRPSSKKKKKK-NH2 (not fully specified (residue 14, N-terminus)) [Compound 124] : 4 pM

// recorded Human GIPR cAMP, HEK293T EC50 for [NMeY][Aib]EGTFISDYSIALDR[Aib]AQ[Aib]KFVNWLLAQS-NH2 (not fully specified (residue 21)) [Compound 85] : 0.9 pM

// recorded Human GIPR cAMP, HEK293T EC50 for [NMeY][Aib]EGTFISDYSIALDR[Aib]KQ[Aib]NFVNWLLAQSGGGGS-NH2 (not fully specified (residue 18)) [Compound 133] : 0.5 pM

// recorded Human GIPR cAMP, HEK293T EC50 for [NMeY][Aib]EGTFISDYSI[Aib]LDR[Aib]AQ[Aib]KFVNWLLAQRGGGGS-NH2 (not fully specified (residue 21)) [Compound 114] : 0.7 pM

// recorded Human GIPR cAMP, HEK293T EC50 for [NMeY][Aib]EGTFISDYSIALDR[Aib]K([AEEA-γGlu-γGlu-γGlu-C15 diacid])Q[Aib]NFVNWLLAQK (not fully specified (N-terminus)) [Compound 44] : 0.4 pM

// recorded Human GIPR cAMP, HEK293T EC50 for [NMeY][Aib]EGTFISDYSI[Aib]LDRK([AEEA-AEEA-γGlu-γGlu-C15 diacid])AQ[Aib]NFVNWLLAQRGGGGS-NH2 [Compound 135] : 0.5 pM

// recorded Human GIPR cAMP, HEK293T EC50 for [NMeY][Aib]EGTFISDYSI[Aib]LDR[Aib]AQ[Aib]K(2OEGgE‑C15DA)FVNWLLAQSPSSGAPPPS-NH2 [Compound 102] : 0.5 pM

// recorded Human GIPR cAMP, HEK293T EC50 for [NMeY][Aib]EGTFISDYSIALDR[Aib]K([G2E3-C15 diacid])Q[Aib]NFVNWLLAQSPSSGAPPPS-OH (not fully specified) [Compound 55] : 0.2 pM
